System: UACC-257
Assay: NCI tumour cell line growth inhibition, 48 h
Active and inactive are the calls of the source. Rule as the data show it: active = GI50 up to about 1.1 µM and inactive = higher.
Reported GI50 values for a set of molecules
Observable: GI50

• O=C(CSc1nc2ccc(I)cc2c(=O)n1Cc1ccccc1)NN1C(=O)CCC1=O = 45 µM (inactive)
• CN1C(c2ccccc2)CS(=O)(=O)CS1(=O)=O (stereo not given) = > 100 µM (inactive)
• COC(=O)C(Cc1ccccc1)NP(=O)(O)OCC1OC(n2ccc(N)nc2=O)C(O)C1O (stereo not given) = > 100 µM (inactive)
• Cc1cccc2c(O)cc(=O)oc12 = > 100 µM (inactive)
• CC(=O)NNc1nc(C)c(C(/C=C/c2ccc(/C=C/C(=N\NC(=O)c3ccncc3)c3sc(NNC(C)=O)nc3C)cc2)=N/NC(=O)c2ccncc2)s1 = 44.5 µM (inactive)
• CC(SC(=S)N1CCOCC1)C(=O)Nc1nnc(-c2ccc(Cl)cc2)o1 (stereo not given) = 46.1 µM (inactive)
• CS(=O)(=O)CC(=O)c1ccccc1 = > 100 µM (inactive)
• O=C(O)c1cc(-c2ccc3cc4c(cc3c2)OCO4)nc2ccccc12 = 5.41 µM (inactive)
• Cc1cc2c(cc1C)C(=O)c1ncccc1C2=O = 18.7 µM (inactive)
• CS[C@]12[C@@H]3C(=O)N(C)C(=O)[C@@H]3[C@](C)(C(=O)N1C)C(=O)N2c1ccccc1 = > 100 µM (inactive)
